Target: human LXRβ (Homo sapiens)
Sequence (P55055 1-460): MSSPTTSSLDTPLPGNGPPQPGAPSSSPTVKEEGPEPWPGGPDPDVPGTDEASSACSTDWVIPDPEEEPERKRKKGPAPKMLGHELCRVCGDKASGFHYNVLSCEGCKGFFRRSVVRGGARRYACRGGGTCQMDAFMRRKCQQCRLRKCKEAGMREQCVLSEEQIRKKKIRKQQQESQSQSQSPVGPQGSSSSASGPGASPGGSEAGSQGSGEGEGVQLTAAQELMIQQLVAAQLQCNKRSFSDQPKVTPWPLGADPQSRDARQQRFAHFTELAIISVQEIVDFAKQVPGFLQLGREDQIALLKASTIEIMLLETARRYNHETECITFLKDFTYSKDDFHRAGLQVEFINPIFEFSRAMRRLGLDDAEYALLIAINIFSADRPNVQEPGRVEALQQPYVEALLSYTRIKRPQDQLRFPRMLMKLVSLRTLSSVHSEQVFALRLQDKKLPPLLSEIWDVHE
Reported IC50 values are given for each entry in this list.
Return type: number; implicit unit nM.

- smiles: "O=C(O)c1cc(Cl)c(OCc2cccc(-c3c(Cc4ccccc4)cnc4c(C(F)(F)F)cccc34)c2)c(Cl)c1"
  endpoint_unit: "nM"
  IC50: 47
- smiles: "Cc1cc(C(=O)O)ccc1NCc1cccc(-c2c(Cc3ccccc3)cnc3c(C(F)(F)F)cccc23)c1"
  endpoint_unit: "nM"
  IC50: 95

Read the next record carefully.
Q. What reported IC50 corresponds to Cc1cnc2c(C(F)(F)F)cccc2c1-c1cccc(CNc2ccc3cc(C(=O)O)ccc3c2)c1 on human LXRβ (Homo sapiens)?
A. 117

###

Target: human LXRα (Homo sapiens)
Construct: biotin (biotinylated; biotinylation tag not described); made in house; host or cells: E. coli
Sequence (Q13133 1-447): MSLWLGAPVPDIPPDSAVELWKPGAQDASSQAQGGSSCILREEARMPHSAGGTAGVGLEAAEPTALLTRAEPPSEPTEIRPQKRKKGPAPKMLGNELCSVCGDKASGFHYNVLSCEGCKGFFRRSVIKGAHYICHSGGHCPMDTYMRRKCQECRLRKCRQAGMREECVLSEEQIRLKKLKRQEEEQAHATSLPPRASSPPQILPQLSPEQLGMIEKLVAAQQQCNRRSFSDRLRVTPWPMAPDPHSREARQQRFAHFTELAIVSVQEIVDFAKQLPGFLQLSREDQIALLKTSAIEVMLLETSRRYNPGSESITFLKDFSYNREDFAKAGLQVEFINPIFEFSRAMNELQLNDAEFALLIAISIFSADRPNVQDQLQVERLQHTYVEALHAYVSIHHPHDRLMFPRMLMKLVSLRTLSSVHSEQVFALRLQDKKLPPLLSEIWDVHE
Test: Ligand-binding test procedure for human LXRα (3H T0901317 competition, flash plates)
Conditions: biotinylated hLXRα, tracer 3H T0901317
measurement_name: pIC50
Remember the convention: pIC50 equals -log10 of concentration in molar.

Solved entries:
- smiles: "Cc1cnc2c(C(F)(F)F)cccc2c1-c1cccc(CNc2cccc3c(CC(=O)O)cccc23)c1"
  pIC50: 6.68
- smiles: "O=C(O)c1ccc(NCc2cccc(-c3c(Cc4ccccc4)cnc4c(C(F)(F)F)cccc34)c2)c(OC(F)(F)F)c1"
  pIC50: 5.69

Read the next record carefully.
Q. Name the recorded pIC50 for Cn1cc(C(=O)O)c2cccc(NCc3cccc(-c4c(Cc5ccccc5)cnc5c(C(F)(F)F)cccc45)c3)c21 .
A. 5.98

###

Reported Binding ratio a/b values are given for each entry in this list.
target: human LXRβ (Homo sapiens, UniProt P55055); construct: biotin (biotinylated; biotinylation tag not described); made in house; host or cells: E. coli; assay: Ligand-binding test procedure for human LXRβ (3H T0901317 competition, flash plates); conditions: IC50 (μM) LXRα binding/IC50 (μM) LXRβ binding
Write no unit; give the number alone.

Solved entries:
- smiles: "O=C(O)c1ccc2ccccc2c1OCc1cccc(-c2c(Cc3ccccc3)cnc3c(C(F)(F)F)cccc23)c1"
  assay_target: "human LXRβ (Homo sapiens, UniProt P55055)"
  Binding ratio a/b: 2
- smiles: "O=C(O)Cc1cccc2ccc(OCc3cccc(-c4ccnc5c(C(F)(F)F)cccc45)c3)cc12"
  assay_target: "human LXRβ (Homo sapiens, UniProt P55055)"
  Binding ratio a/b: 1
- smiles: "O=C(O)c1ccc(F)cc1NCc1cccc(-c2c(Cc3ccccc3)cnc3c(C(F)(F)F)cccc23)c1"
  assay_target: "human LXRβ (Homo sapiens, UniProt P55055)"
  Binding ratio a/b: 7

Q. Name the recorded Binding ratio a/b for Cc1cnc2c(C(F)(F)F)cccc2c1-c1cccc(COc2cccc3c(CC(=O)O)cccc23)c1 .
A. 22

Q. Name the recorded Binding ratio a/b for Cc1cccc(NCc2cccc(-c3c(Cc4ccccc4)cnc4c(C(F)(F)F)cccc34)c2)c1C(=O)O .
A. 2

Q. Name the recorded Binding ratio a/b for Cc1cc(C(=O)O)c(C)cc1NCc1cccc(-c2c(C)cnc3c(C(F)(F)F)cccc23)c1 .
A. 10

###

Molecular target: human LXRβ (Homo sapiens)
Construct: biotin (biotinylated; biotinylation tag not described); made in house; host or cells: E. coli
Sequence (P55055 1-460): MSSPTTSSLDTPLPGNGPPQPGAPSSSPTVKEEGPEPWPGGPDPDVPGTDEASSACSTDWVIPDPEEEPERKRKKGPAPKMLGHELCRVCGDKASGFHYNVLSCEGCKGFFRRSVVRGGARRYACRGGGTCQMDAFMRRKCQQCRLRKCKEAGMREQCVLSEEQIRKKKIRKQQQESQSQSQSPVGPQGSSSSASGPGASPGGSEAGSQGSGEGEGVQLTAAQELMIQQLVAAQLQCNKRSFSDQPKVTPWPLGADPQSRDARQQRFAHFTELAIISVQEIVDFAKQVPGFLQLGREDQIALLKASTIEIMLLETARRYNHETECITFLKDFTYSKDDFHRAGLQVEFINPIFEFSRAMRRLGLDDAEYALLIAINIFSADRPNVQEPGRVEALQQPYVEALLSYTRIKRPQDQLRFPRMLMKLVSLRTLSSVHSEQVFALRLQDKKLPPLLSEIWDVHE
Assay: Ligand-binding test procedure for human LXRβ (3H T0901317 competition, flash plates)
Settings: IC50 (μM) LXRα binding/IC50 (μM) LXRβ binding
Procedure: Ligand-Binding Test Procedure for Human LXRβ. Receptor source: E. coli extract from cells expressing biotinylated hLXRβ. Extract was made in a similar buffer as above, but with 50 mM TRIS. Washed streptavidin and coated flash plates with wash buffer. Diluted receptor extract to give Bmax ˜4000 cpm and add to the wells. Wrapped the plates in aluminum foil and stored them at +4° C. over night. Made a dilution series in DMSO of the test ligands. […] Measured the remaining radioactivity in the plate.
measurement_name: Binding ratio a/b
Write no unit; give the number alone.

Solved entries:
- compound: "O=C(O)c1ccc(OCc2cccc(-c3c(Cc4ccccc4)cnc4c(C(F)(F)F)cccc34)c2)c(Cl)c1 [Example 85]"
  Binding ratio a/b: 3
- compound: "O=C(O)c1cccc(Oc2cccc(-c3c(Cc4ccccc4)cnc4c(C(F)(F)F)cccc34)c2)c1 [Example 126]"
  Binding ratio a/b: 2
- compound: "Cc1cnc2c(C(F)(F)F)cccc2c1-c1cccc(CNc2cccc3c(CC(=O)O)cccc23)c1 [Example 13]"
  Binding ratio a/b: 22
- compound: "O=C(N[C@@H](Cc1c[nH]cn1)C(=O)O)c1cccc(COc2cccc(-c3c(Cc4ccccc4)cnc4c(C(F)(F)F)cccc34)c2)c1 [Example 72]"
  Binding ratio a/b: 4
- compound: "COc1cc(NCc2cccc(-c3c(Cc4ccccc4)cnc4c(C(F)(F)F)cccc34)c2)c(Cl)cc1C(=O)O [Example 18]"
  Binding ratio a/b: 16

Q. Name the recorded Binding ratio a/b for Cc1c(C(=O)O)cc(Br)c(NCc2cccc(-c3c(Cc4ccccc4)cnc4c(C(F)(F)F)cccc34)c2)c1C [Example 108] .
A. 1

Q. Name the recorded Binding ratio a/b for O=C(O)Cc1cccc2c(NCc3cccc(-c4c(Cc5ccccc5)cnc5c(C(F)(F)F)cccc45)c3)cccc12 [Example 8] .
A. 23

Q. Name the recorded Binding ratio a/b for O=C(O)c1ccc(F)c(NCc2cccc(-c3c(Cc4ccccc4)cnc4c(C(F)(F)F)cccc34)c2)c1 [Example 52] .
A. 6

Q. Name the recorded Binding ratio a/b for COc1ccc(C(=O)O)cc1OCc1cccc(-c2c(Cc3ccccc3)cnc3c(C(F)(F)F)cccc23)c1 [Example 98] .
A. 2

Q. Name the recorded Binding ratio a/b for COc1cc(COc2cccc(-c3c(Cc4ccccc4)cnc4c(C(F)(F)F)cccc34)c2)ccc1C(=O)O [Example 28] .
A. 9

###

Reported pIC50 values are given for each entry in this list.
Protein target, amino acids: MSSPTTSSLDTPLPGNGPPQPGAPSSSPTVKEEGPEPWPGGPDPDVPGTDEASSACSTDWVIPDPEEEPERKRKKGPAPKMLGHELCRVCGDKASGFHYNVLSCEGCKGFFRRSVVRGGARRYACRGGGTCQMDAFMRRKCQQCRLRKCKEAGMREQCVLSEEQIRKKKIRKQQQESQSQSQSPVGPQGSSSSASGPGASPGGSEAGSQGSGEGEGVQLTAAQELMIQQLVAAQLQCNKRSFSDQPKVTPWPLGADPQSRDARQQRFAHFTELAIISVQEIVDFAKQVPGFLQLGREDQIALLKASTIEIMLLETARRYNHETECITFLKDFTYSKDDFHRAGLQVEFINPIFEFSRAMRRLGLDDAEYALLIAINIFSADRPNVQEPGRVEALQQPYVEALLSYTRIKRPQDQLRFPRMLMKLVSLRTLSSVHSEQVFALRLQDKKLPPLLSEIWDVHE
Remember the convention: pIC50 equals -log10 of concentration in molar.

Solved entries:
- compound: "C#CCC(C(=O)O)c1cccc2c(OCc3cccc(-c4ccnc5c(C(F)(F)F)cccc45)c3)cccc12 (stereo not shown) [Example 66]"
  result: 6.34
- compound: "Cc1cnc2c(C(F)(F)F)cccc2c1-c1cccc(CNc2ccc(C(=O)O)c(Cl)c2)c1 [Example 73]"
  result: 6.74
- compound: "Cc1cc(NCc2cc(-c3c(Cc4ccccc4)cnc4c(C(F)(F)F)cccc34)cs2)c(C)cc1CC(=O)O [Example 70]"
  result: 8.70
- compound: "O=C(O)c1ccc(NCc2cccc(-c3c(Cc4ccccc4)cnc4c(C(F)(F)F)cccc34)c2)cc1Cl [Example 87]"
  result: 7.55

Q. Name the recorded pIC50 for O=C(O)c1ccc(NCc2cccc(-c3c(Cc4ccccc4)cnc4c(C(F)(F)F)cccc34)c2)cc1 [Example 101] .
A. 6.74

Q. Name the recorded pIC50 for O=C(O)c1cc(NCc2cccc(-c3c(Cc4ccccc4)cnc4c(C(F)(F)F)cccc34)c2)ccc1Cl [Example 82] .
A. 6.28

Q. Name the recorded pIC50 for O=C(O)c1cc(F)ccc1OCc1cccc(-c2c(Cc3ccccc3)cnc3c(C(F)(F)F)cccc23)c1 [Example 104] .
A. 5.67

Q. Name the recorded pIC50 for Cc1c(CC(=O)O)ccc(NCc2cccc(-c3ccnc4c(C(F)(F)F)cccc34)c2)c1C [Example 22] .
A. 5.86

Q. Name the recorded pIC50 for O=C(O)c1cc(F)ccc1NCc1cccc(-c2c(Cc3ccccc3)cnc3c(C(F)(F)F)cccc23)c1 [Example 112] .
A. 6.33

Q. Name the recorded pIC50 for O=C(O)c1ccccc1NCc1cccc(-c2c(Cc3ccccc3)cnc3c(C(F)(F)F)cccc23)c1 [Example 97] .
A. 6.63

Q. Name the recorded pIC50 for O=C(O)C1CCN(C(=O)c2cccc(COc3cccc(-c4c(Cc5ccccc5)cnc5c(C(F)(F)F)cccc45)c3)c2)CC1 [Example 40] .
A. 7.08

Q. Name the recorded pIC50 for Cc1cc(NCc2cncc(-c3c(C)cnc4c(C(F)(F)F)cccc34)c2)c(C)cc1CC(=O)O [Example 117] .
A. 5.60

Q. Name the recorded pIC50 for O=C(O)c1cccc(NCc2cccc(-c3c(Cc4ccccc4)cnc4c(C(F)(F)F)cccc34)c2)c1 [Example 51] .
A. 6.68

Q. Name the recorded pIC50 for O=C(O)Cc1cccc2cc(OCc3cccc(-c4c(Cc5ccccc5)cnc5c(C(F)(F)F)cccc45)c3)ccc12 [Example 57] .
A. 7.26

Q. Name the recorded pIC50 for Cc1cc(C(=O)O)c(C)cc1NCc1cccc(-c2c(Cc3ccccc3)cnc3c(C(F)(F)F)cccc23)c1 [Example 12] .
A. 7.92

Q. Name the recorded pIC50 for O=C(O)Cc1cccc2c(OCc3cncc(-c4ccnc5c(C(F)(F)F)cccc45)c3)cccc12 [Example 118] .
A. 5.43
